# System: AVEFA
# Method: Pre-emergence herbicidal action against AVEFA
# Format: in vivo, Avena fatua
# Assay conditions: 320 g/ha, scored visually after 3 weeks vs untreated controls
Parameter measured: Pre-emergence action against AVEFA in %

Please review the entries below; each comes with its answer.
{"Compound": "CC#Cc1cc(Cl)c(C2=C(O)C3(CCC(COC)C3)NC2=O)c(OC)c1 (centres unmarked) [Example I-73]", "Pre-emergence action against AVEFA in %": "100%"}
{"Compound": "CC#Cc1cc(C)c(C2=C(O)C3(CCC(COC)C3)NC2=O)c(F)c1 (centres unmarked) [Example I-36]", "Pre-emergence action against AVEFA in %": "80%"}
{"Compound": "CC#Cc1cc(C)c(C2=C(O)C3(CCC(COC)C3)NC2=O)c(OC)c1 (centres unmarked) [Example I-33]", "Pre-emergence action against AVEFA in %": "80%"}
{"Compound": "C=CCOCC1CCC2(C1)NC(=O)C(c1c(F)cc(C#CC)cc1OC)=C2O (centres unmarked) [Example I-54]", "Pre-emergence action against AVEFA in %": "80%"}
{"Compound": "C=CCOCC1CCC2(C1)NC(=O)C(c1c(C)cc(C#CC)cc1Br)=C2O (centres unmarked) [Example I-67]", "Pre-emergence action against AVEFA in %": "80%"}
{"Compound": "CC#Cc1cc(C)c(C2=C(OC(=O)C(C)C)C3(CCC(COC)C3)NC2=O)c(F)c1 (centres unmarked) [Example P-57]", "Pre-emergence action against AVEFA in %": "80%"}
{"Compound": "CC#Cc1cc(Br)c(C2=C(OC(=O)C(C)C)C3(CCC(COCC)C3)NC2=O)c(OC)c1 (centres unmarked) [Example P-23]", "Pre-emergence action against AVEFA in %": "100%"}

Now examine the next entry.
Q) Retrieve Pre-emergence action against AVEFA in % measured for CC#Cc1cc(C)c(C2=C(OC(=O)OCC)C3(CCC(COCCC)C3)NC2=O)c(OC)c1 (centres unmarked) [Example P-83] and print it.
A) 80%

###

# Tested on: DIGSA
# Method: Post-emergence herbicidal action against DIGSA
# Type: in vivo, Digitaria sanguinalis
# Assay conditions: 80 g/ha, visual assessment about 3 weeks after treatment vs untreated controls
Parameter measured: Post-emergence action against DIGSA in % (%)
Value expressed in %; do not type the unit.

{"Compound": "CC#Cc1cc(Cl)c(C2=C(O)C3(CCC(COCC)C3)NC2=O)c(CC)c1 (stereo not shown) [Example I-03]", "Reading unit": "%", "Experimental result": 100}
{"Compound": "C=CCOCC1CCC2(C1)NC(=O)C(c1c(C)cc(C#CC)cc1Cl)=C2O (stereo not shown) [Example I-44]", "Reading unit": "%", "Experimental result": 100}
{"Compound": "CC#Cc1cc(C)c(C2=C(OC(=O)OCC)C3(CCC(COCC)C3)NC2=O)c(Cl)c1 (stereo not shown) [Example P-09]", "Reading unit": "%", "Experimental result": 100}

Now examine the next entry.
Q) Retrieve Post-emergence action against DIGSA in % measured for CC#Cc1cc(C)c(C2=C(OC(=O)OCC)C3(CCC(COCCOC)C3)NC2=O)c(OC)c1 (stereo not shown) [Example P-80] and print it.
A) 90
